Quick reference: residual activity of the listed items.
# study.system: Tyrosine-protein kinase Mer (Homo sapiens)
# test.settings: at 10 µM
Unit % implied. Number only.

Known results for compounds:
chemical.smiles	scale.unit	residual activity
O=C(O)c1ccc2c3c1cccc3c(=O)n1c3ccccc3nc21	%	28
COc1cc2ncnc(Nc3ccc(NC(=O)c4ccccc4)cc3)c2cc1OC	%	59
CC(C)n1cnc2/c(=N/c3cccc(Cl)c3)nc(NCCO)[nH]c21	%	10
CO[C@H]1[C@@H](OC)C[C@H](C)[C@@H](OC)C2=CC(=O)C=C(NC(=O)/C(C)=C/C=C/[C@H](OC)[C@@H](OC(N)=O)/C(C)=C/[C@@H]1C)C2=O	%	93
Nc1n[nH]c2nnc(-c3c(-c4ccccc4)nn4ccccc34)cc12	%	57

We next turn to a different compound, shown below.
input: Look up and report measured residual activity for this entry: Oc1ccc(Nc2nc(-c3ccc(Cl)cc3)cs2)cc1
output: 90

* * *

Recorded residual activity, one value per entry.
# study.system: SRSF protein kinase 1 (Homo sapiens)
# test.settings: at 10 µM
API: value field is a number in %; no unit string.

Example entries begin here.
chemical.smiles	residual activity, %
Oc1ccc(-c2nc(-c3ccc(F)cc3)c(-c3ccncc3)[nH]2)cc1	110
Nc1n[nH]c2nnc(-c3c(-c4ccccc4)nn4ccccc34)cc12	69
CCN(CC)C(=O)c1ccc(Nc2nc(OCC3CCCCC3)c3nc[nH]c3n2)cc1	43

input: Output measured residual activity for this item: CCN(CC)CCCCN1c2ccccc2Oc2ccc(Cl)cc21
output: 117

input: Identify residual activity associated with the compound O=C1NC(=O)/C(=C/c2ccc3c(c2)OC(F)(F)O3)S1
output: 98

input: Given the compound N#Cc1cnc2cnc(NCc3cccnc3)cc2c1Nc1ccc(F)c(Cl)c1 , write its reported residual activity.
output: 78

input: Answer with the recorded residual activity for the compound listed here: CO[C@H]1C[C@@H]2CC[C@@H](C)[C@@](O)(O2)C(=O)C(=O)N2CCCC[C@H]2C(=O)O[C@H]([C@H](C)C[C@@H]2CC[C@@H](O)[C@H](OC)C2)CC(=O)[C@H](C)/C=C(\C)[C@@H](O)[C@@H](OC)C(=O)[C@H](C)C[C@H](C)/C=C/C=C/C=C/1C
output: 108

input: Report measured residual activity; entry is N#CC(C#N)=C(N)/C(C#N)=C/c1ccc(O)cc1
output: 95

input: Give the reported residual activity for this compound. NC(=O)c1ccc2[nH]c(-c3ccc(Oc4ccc(Cl)cc4)cc3)nc2c1
output: 64

* * *

Each entry below lists one item and its recorded residual activity value.
# study.system: Fibroblast growth factor receptor 2 (Homo sapiens) (UniProt P21802)
# Sequence (P21802 22-821 limits assumed): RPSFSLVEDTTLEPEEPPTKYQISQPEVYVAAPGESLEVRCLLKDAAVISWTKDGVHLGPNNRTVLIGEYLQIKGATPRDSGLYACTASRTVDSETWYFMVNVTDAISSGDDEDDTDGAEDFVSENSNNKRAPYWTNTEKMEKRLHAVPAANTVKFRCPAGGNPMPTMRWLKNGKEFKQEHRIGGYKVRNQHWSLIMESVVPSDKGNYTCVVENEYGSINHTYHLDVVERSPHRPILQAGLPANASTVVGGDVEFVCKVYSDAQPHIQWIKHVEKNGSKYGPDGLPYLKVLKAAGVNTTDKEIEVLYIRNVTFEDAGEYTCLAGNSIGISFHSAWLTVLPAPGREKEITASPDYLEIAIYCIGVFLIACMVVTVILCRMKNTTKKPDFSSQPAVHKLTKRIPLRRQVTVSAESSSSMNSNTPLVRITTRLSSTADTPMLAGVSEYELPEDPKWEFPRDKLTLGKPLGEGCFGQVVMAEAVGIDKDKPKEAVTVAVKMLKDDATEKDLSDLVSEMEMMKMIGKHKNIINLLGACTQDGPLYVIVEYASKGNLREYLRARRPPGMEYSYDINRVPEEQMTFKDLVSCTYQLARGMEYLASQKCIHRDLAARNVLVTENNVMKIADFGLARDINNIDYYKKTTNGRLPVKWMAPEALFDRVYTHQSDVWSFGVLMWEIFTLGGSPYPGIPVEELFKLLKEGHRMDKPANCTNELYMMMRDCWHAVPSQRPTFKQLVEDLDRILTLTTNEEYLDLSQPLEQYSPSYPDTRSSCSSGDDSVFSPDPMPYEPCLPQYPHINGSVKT
# test.settings: at 1 µM
// return numeric value only (unit: %, not printed)

Before answering, review these 5 worked examples.
chemical.smiles	scale.unit	experimental.value
O=C1NC(=O)/C(=C/c2ccc3c(c2)OC(F)(F)O3)S1	%	92
CO[C@H]1C[C@@H]2CC[C@@H](C)[C@@](O)(O2)C(=O)C(=O)N2CCCC[C@H]2C(=O)O[C@H]([C@H](C)C[C@@H]2CC[C@@H](O)[C@H](OC)C2)CC(=O)[C@H](C)/C=C(\C)[C@@H](O)[C@@H](OC)C(=O)[C@H](C)C[C@H](C)/C=C/C=C/C=C/1C	%	115
CCC(=O)Nc1ccc2ncnc(Nc3cccc(Br)c3)c2c1	%	105
O=C(O)c1ccc2c3c1cccc3c(=O)n1c3ccccc3nc21	%	110
O=C(Nc1cccc(Nc2nccc(Nc3cccc(C(F)(F)F)c3)n2)c1)C1CC1	%	99

input: Query residual activity for CN(C)c1ccc(/C=C2\C(=O)Nc3ccccc32)cc1
output: 94

input: Fill in residual activity for record Cc1nc2cc3nc(-c4cccs4)cnc3cc2n1C
output: 72

input: Please give the documented residual activity of CO[C@H]1[C@@H](OC)C[C@H](C)[C@@H](OC)C2=CC(=O)C=C(NC(=O)/C(C)=C/C=C/[C@H](OC)[C@@H](OC(N)=O)/C(C)=C/[C@@H]1C)C2=O
output: 104

Sourced from ChEMBL document CHEMBL2218924
